Just for reference, PubChem BioAssay (NCI) is where these values come from.

tested on: SF-295 CNS; assay: NCI tumour cell line growth inhibition, 48 h
Item-by-item account of TGI

Bench note: what TGI did C/C(=C\c1ccccc1)C(=O)CCN1CCOCC1 show?
> 100 µM

* * *

Item-by-item account of TGI
test system: SW-620 colon; experiment: NCI tumour cell line growth inhibition, 48 h

Consider the following illustrative entries.
Molecule	TGI
CC(=O)NC(CCCNCc1ccccc1)C(=O)NCc1ccccc1 (centres undefined)	> 100 µM
Nc1nn2c(C(Br)Br)cc(C(Br)Br)nc2c1[N+](=O)[O-]	0.77 µM
C=C1C(=O)O[C@H]2[C@H]1[C@H](OC(=O)/C(C)=C\C)CC(=C)[C@@H]1[C@H](O)[C@H]3O[C@@]3(C)[C@@]12O	> 100 µM
CC(C)NC[C@@H](C(=O)N1CCN(c2ncnc3c2[C@H](C)C[C@H]3O)CC1)c1ccc(Cl)cc1	> 100 µM
CN(C(=O)C12C3C4C5C3C1(C(=O)O)C5C42)C(C)(C)C (centres undefined)	60.8 µM

Bench note: what TGI did C[N+](C)(C)CC(=O)N/N=C(/Cc1nc2c3c(ccc2[nH]c1=O)C(=O)c1ccccc1C3=O)C(=O)Nc1ccc(Cl)c(Cl)c1 show?
> 100 µM

Check CCN(CC)CCOC(NC(C)=O)(c1ccccc1)c1ccccc1 too.
> 100 µM

Check O=C1CCSSCCC(=O)NCCN1 too.
> 100 µM

Check CNS(=O)(=O)NN(C)S(=O)(=O)c1ccc(F)cc1 too.
> 100 µM

Check O=c1c2c([nH]c3cc4c(cc13)OCO4)-c1ccccc1CC2 too.
> 100 µM

Check COc1c2c(c3c(c1CCC(=O)O)OC(C)(C)C=C3)OC(C)(C)C=C2 too.
> 100 µM

Check CC1(C)SC2C(NC(=O)C(N)c3ccccc3)C(=O)N2C1C(=O)O (centres undefined) too.
> 100 µM

Check Cc1ccc(C(=O)O/N=C2/CCC/C2=C\c2ccccc2)cc1 too.
> 100 µM

Check CCN(CC)CCNc1ccc2nnn3c4ccc(OC)cc4c(=O)c1c23 too.
17.1 µM

Check COC(=O)/C=C/C=C(c1ccccc1)c1ccccc1 too.
> 100 µM

Check CC(=O)OC[C@]1(C(=O)C(O)c2ccoc2)[C@H](C)CC[C@@]23COC(=O)C2=CCC[C@@H]31 (some centres undefined) too.
> 10 µM

Check CC(=O)OC(C)c1cc2c(s1)C(=O)c1sccc1C2=O (centres undefined) too.
> 100 µM

Check CN(C)NC(=S)Nc1ccccc1Br too.
> 100 µM

Check COc1cc(C2c3cc4c(cc3OC(NN=C(C)C)C2C)OCO4)cc(OC)c1O (centres undefined) too.
> 100 µM

* * *

system: 786-0 renal; assay: NCI tumour cell line growth inhibition, 48 h
Item-by-item account of TGI
Your answer is read as µM, so omit the unit and give the number.

Consider the following illustrative entries.
Molecule	Test system	TGI, µM
Cc1ccc2c(ccc3c[n+]4c5ccccc5ccc4n32)c1	786-0 renal	14.8
CN(C)c1nc(=NCc2ccncc2)ss1	786-0 renal	31.5

Query for 786-0 renal: what TGI does the record show for Cc1occc1C(=S)Nc1ccc(Cl)c(COC(C)(C)C)c1 ?
30.3

Check CC(CC(C#N)(c1ccccc1)c1ccccc1)N1CCCCC1 (stereo not given) too.
80.3

Check Cc1cc(C)c2c(=O)n(CN3CC4Nc5ccccc5C4C3)sc2n1 (stereo not given) too.
33.8

Check CCN(CC)CCn1ccc(=O)c2cc3c(=O)ccn(CCN(CC)CC)c3c(C)c21 too.
8.56
